Ref: ChEMBL document CHEMBL3507680

test: Human HepG2 cell viability assay in 384 well format; type: toxicity, cell-based; set-up: dose 125 nL, time 70.5 hour; concentration not given beside the values; details: HepG2 cells, read-out: Inhibition
Experimental endpoint: cytotoxicity at 70.5 h

Compound	Result
Cc1nccnc1CCC1COCCN1C(=O)CCc1c(C)noc1C (stereo not drawn)	15.5%
CNC(=O)CC1CC2(CCN(c3ncccn3)CC2)c2ccccc21 (stereo not drawn)	-6.77%
N#Cc1ccc(NCCCOCC2CCOC2)c(F)c1 (stereo not drawn)	6.96%
COc1cccc(-c2nc(C)c(C(=O)NCCC(=O)O)s2)c1	-15.8%
CCCS(=O)(=O)N1CCOC2(CCCN(c3ncc(F)cn3)C2)C1 (stereo not drawn)	-13.3%
CCn1nc2nc(SCC(=O)O)cc(C(F)F)c2c1C	-5.31%
CC1CCCN(C(=O)c2ccc(N(C)Cc3cnn(C)c3)nc2)C1 (stereo not drawn)	20.1%
O=C(c1ccc(=O)[nH]c1)N1CCCC1c1nc2cc(F)ccc2[nH]1 (stereo not drawn)	-3.97%
Fc1cc(Cl)cnc1N1CCCC(c2nccn2Cc2ccccn2)C1 (stereo not drawn)	10.1%
O=C(CN(Cc1cccs1)C1CCS(=O)(=O)C1)NCCc1cccs1 (stereo not drawn)	-2.26%
O=C1CN(Cc2ccc3ccccc3n2)CCN1C1CCCC1	-1.73%
c1nc(N2CCOCC2)nc2c1COCC21CCN(CC2CC2)C1 (stereo not drawn)	-6.25%
CC(=O)N1CCCCC1c1nc(N)ncc1-c1ccccc1 (stereo not drawn)	-24.9%
O=C(CCc1cccc(Cl)c1)NS(=O)(=O)Cc1ccon1	1.74%
COc1ccc(OCc2cc(C(=O)N3CC=CC3)n[nH]2)c(Cl)c1	-3%
Cc1cc(C)c2nc(CN3CCC(CN)C3)cc(O)c2c1 (stereo not drawn)	6.13%
CCCNCC1(O)CCCN(Cc2cccc(C)c2)C1=O (stereo not drawn)	-3.03%
CC1c2ncc(CNC(=O)C3CC3)n2CCN1Cc1ccsc1 (stereo not drawn)	-1.59%
Cc1cnn(CC2CCCCN2C(=O)CN(C)C2CC2)c1 (stereo not drawn)	16.1%
c1cnn(-c2ccc(CCNC3CCN(C4CC4)C3)cc2)c1 (stereo not drawn)	0.821%
c1cncc(CN2CCC(NCCc3ccc4c(c3)CCO4)CC2)c1	4.11%
CN1[C@H](Cn2cncn2)C[C@@H]2CN(Cc3ccsc3)CC[C@@H]21	-3.81%
CNC(=O)Cc1noc(Cc2cccc(Cl)c2)n1	-12.1%
CCc1ccc(CN2CCC3(CCCN(C(=O)c4cnccn4)C3)C2)o1 (stereo not drawn)	2.89%
CN(C)Cc1cncc2c1CCN(Cc1ccoc1)C2	-4.55%
O=C(c1cccs1)N1CC[C@@H]2CN(C3CCOCC3)CCO[C@@H]2C1	-6.31%
Cc1cc(C(=O)N2CCC(CCn3cccn3)CC2)c(C)o1	-5.22%
Cc1cccc(CNC2CCN(CCc3ccncc3)CC2)c1C	-3.09%
CCCOCCNc1nc2c(s1)c(C)nn2C	24.8%
COc1cnc(CSc2nnc(C)s2)cc1OCC(N)=O	15.1%
CC(C)NC(=O)N1CCCCCC1C1CCN(c2ncccn2)CC1 (stereo not drawn)	19.7%
CC1CCC(NCCCN2CCOCC2)CC1 (stereo not drawn)	-6.93%
CCc1cnc(CN(C(C)=O)C2CCN(CCc3ccccc3)C2)o1 (stereo not drawn)	18.3%
C1CN(CC2CCOCC2)Cc2c(COCC3CC3)nnn2C1	-7.76%
Cn1ncc2c(N3CCN(C(N)=O)CC3)nc(C3CCCC3)nc21	16.3%
Cc1ncc(CNC2CCCN(Cc3noc(C4CC4)n3)C2)s1 (stereo not drawn)	-2.63%
Cc1ccc(CN2CCC3(CC(=O)N(c4cccc(F)c4)C3)C2)o1 (stereo not drawn)	-17.4%
Cc1ccc(-c2ncc(C(=O)NCCS(N)(=O)=O)s2)c(C)c1	-1.3%
Cc1sc2nc(CCN)nc(N(C)CCCC3CCCO3)c2c1C (stereo not drawn)	16.5%
Cc1nc[nH]c1CNC1CC(=O)N(CCc2cccc(Cl)c2)C1 (stereo not drawn)	-2.03%
O=C(Cc1ccccc1)N1CCC(c2nnc(-c3ccccn3)o2)CC1	21.6%
Cc1ccoc1C(=O)NCCOc1ncc(Cl)cc1Cl	-4.36%
CNc1nc(C2CCCN(C(=O)CNC(C)=O)C2)nc2c1CN(C)CC2 (stereo not drawn)	11.4%
COc1cccc(S(=O)(=O)Cc2cc(C)on2)c1	-3.06%
CS(=O)(=O)Cc1noc(CN(Cc2ccco2)c2ccccc2)n1	-5.15%
CC(Cn1cccn1)NC(=O)NCc1ccc(C(N)=O)cc1 (stereo not drawn)	-15.4%
Cc1cnn(C2(C(=O)O)CCN(c3ccncc3F)CC2)c1	-5.87%
CC(C)CN1CCc2[nH]cnc2C12CCN(C(=O)c1cnn(C)c1)CC2	-7.51%
